System: Salmonella typhimurium
assay-explanation: Antimicrobial activity against Salmonella enterica serovar Typhimurium CHS18 acrAB::Kan with GyrA S38F mutation
Format: functional, Salmonella enterica subsp. enterica serovar Typhimurium
observed-property: MIC (µg/mL)

{"smiles-repr": "CN1C[C@@H]2C[C@H]1CN2c1cc2c(cc1F)c(=O)c(C(=O)O)cn2C1CC1", "target-entity": "Salmonella typhimurium", "test-value": 0.03}
{"smiles-repr": "C[C@H]1COc2c(N3CCN(C)CC3)c(F)cc3c(=O)c(C(=O)O)cn1c23.C[C@H]1COc2c(N3CCN(C)CC3)c(F)cc3c(=O)c(C(=O)O)cn1c23.O", "target-entity": "Salmonella typhimurium", "test-value": 0.03}
{"smiles-repr": "C[C@@H]1CN(c2c(F)c(F)c3c(=O)c(C(=O)O)cn(C4CC4)c3c2F)C[C@H](C)N1", "target-entity": "Salmonella typhimurium", "test-value": 0.5}
{"smiles-repr": "CN(C)[C@@H]1C(O)=C(C(N)=O)C(=O)[C@@]2(O)C(O)=C3C(=O)c4c(O)cccc4[C@@](C)(O)[C@H]3C[C@@H]12", "target-entity": "Salmonella typhimurium", "test-value": 4}
{"smiles-repr": "CCn1cc(C(=O)O)c(=O)c2ccc(C)nc21", "target-entity": "Salmonella typhimurium", "test-value": 16}
{"smiles-repr": "O=C(O)c1cn(C2CC2)c2cc(N3CCNCC3)c(F)cc2c1=O", "target-entity": "Salmonella typhimurium", "test-value": 0.03}
{"smiles-repr": "CN1CCN(c2cc3c(cc2F)c(=O)c(C(=O)O)cn3-c2ccc(F)cc2)CC1", "target-entity": "Salmonella typhimurium", "test-value": 1}
{"smiles-repr": "CO[C@@]1(NC(=O)Cc2cccs2)C(=O)N2C(C(=O)O)=C(COC(N)=O)CS[C@@H]21", "target-entity": "Salmonella typhimurium", "test-value": 1}

----------
Test system: Salmonella typhimurium
assay-explanation: Antimicrobial activity against Salmonella enterica serovar Typhimurium CHS38 tolC::Kan with GyrA D87G mutation
Format: functional, Salmonella enterica subsp. enterica serovar Typhimurium

{"compound": "CC1(C)S[C@@H]2[C@H](NC(=O)[C@H](N)c3ccccc3)C(=O)N2[C@H]1C(=O)O [AMPICILLIN]", "MIC": "> 32 µg/mL"}
{"compound": "C[C@H]1COc2c(N3CCN(C)CC3)c(F)cc3c(=O)c(C(=O)O)cn1c23.C[C@H]1COc2c(N3CCN(C)CC3)c(F)cc3c(=O)c(C(=O)O)cn1c23.O [LEVOFLOXACIN]", "MIC": "< 0.015 µg/mL"}
{"compound": "O=C(O)c1cn(C2CC2)c2cc(N3CCNCC3)c(F)cc2c1=O [CIPROFLOXACIN]", "MIC": "< 0.015 µg/mL"}
{"compound": "O=C(O)c1cn(-c2ccc(F)cc2)c2cc(N3CCNCC3)c(F)cc2c1=O [SARAFLOXACIN]", "MIC": "< 0.015 µg/mL"}
{"compound": "NC[C@H]1O[C@H](O[C@H]2[C@H](O)[C@@H](O[C@H]3O[C@H](CO)[C@@H](O)[C@H](N)[C@H]3O)[C@H](N)C[C@@H]2N)[C@H](O)[C@@H](O)[C@@H]1O [KANAMYCIN]", "MIC": "> 64 µg/mL"}
